Ok so here's the combined literature set: pIC50 for UniProtKB O60674.
pIC50: −log10 of the molar value.

Some solved entries appear below for comparison.
| smiles repr | target | recorded result |
| --- | --- | --- |
| N#CCC1(n2cc(-c3ncnc4[nH]ccc34)cn2)CN(C2CCN(C(=O)c3cccc(F)c3)CC2)C1 | UniProtKB O60674 | 7.30 to 8.00 |
| O=C(CC(F)(F)F)N1CCCN(Nc2ncnc3[nH]ccc23)CC1 | UniProtKB O60674 | < 6.00 |
| O=C(NCC(F)(F)F)c1ccc(-c2nc(Nc3ccc(N4CCOCC4)cc3)nc3[nH]ccc23)cc1 | UniProtKB O60674 | 9.13 |

Please look at the following molecule next.
Prompt: // lookup pIC50 | system=UniProtKB O60674 | key= O=C1NCCCCOCc2cc(ccc2N2CCOCC2)Nc2nccc(n2)-c2ccc1cc2C(F)(F)F
Response: 5.00 to 6.00
